Entries annotated with measured Ki
EXPERIMENTAL_TARGET: recombinant human ALK5 (TGF-βR1) protein (Homo sapiens, UniProt P36897)
Construct: purchased Life Technologies PR9075A
Sequence (P36897 34-503): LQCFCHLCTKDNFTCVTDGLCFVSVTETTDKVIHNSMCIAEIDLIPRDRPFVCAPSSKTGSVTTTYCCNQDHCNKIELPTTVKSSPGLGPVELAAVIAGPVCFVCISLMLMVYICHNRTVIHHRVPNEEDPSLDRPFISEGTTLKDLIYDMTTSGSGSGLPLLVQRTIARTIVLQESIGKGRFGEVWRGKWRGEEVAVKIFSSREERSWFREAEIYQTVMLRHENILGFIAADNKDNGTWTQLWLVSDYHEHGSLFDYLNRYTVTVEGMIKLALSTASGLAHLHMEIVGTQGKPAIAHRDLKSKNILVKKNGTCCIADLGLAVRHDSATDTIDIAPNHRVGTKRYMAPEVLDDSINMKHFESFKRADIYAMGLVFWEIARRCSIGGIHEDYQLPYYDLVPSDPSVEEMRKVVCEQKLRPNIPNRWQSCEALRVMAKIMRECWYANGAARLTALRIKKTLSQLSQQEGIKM
TEST_SUMMARY: Biochemical ALK5 (TGF-βR1) assay to measure pKi (LANCE Ultra ULight kinase assay)
APPLIED_CONDITIONS: apparent pKi from pIC50 by Cheng-Prusoff, read-out: ALK5 pKi (converted)

Use the examples below as a reference point.
| COMPOUND | REPORTED_ENDPOINT | VALUE_REPORTED |
| --- | --- | --- |
| Cc1cccc(-c2[nH]cnc2-c2ccc3ncc(N4CC[C@H](N)C4)cc3c2)n1 [Compound 208] | Ki | 39.8 to 316 pM |
| Cc1cccc(-c2[nH]cnc2-c2ccc3nccc(C(=O)OCCN4CCNCC4)c3c2)n1 [Compound 1121] | Ki | 398 to 3160 pM |
| Cc1cccc(-c2[nH]cnc2-c2ccc3ncc(-c4cc(C(=O)O[C@@H]5CCNC5)ccn4)cc3c2)n1 [Compound 1087] | Ki | < 31.6 pM |
| Cc1cccc(-c2[nH]cnc2-c2ccc3ncc(-c4ccc(C(=O)O[C@H]5CCNC5)cc4)cc3c2)n1 [Compound 718] | Ki | 39.8 to 316 pM |
| Cc1cccc(-c2[nH]cnc2-c2ccc3nccc(C(=O)O[C@H]4CC[C@@](C)(N)CC4)c3c2)n1 [Compound 1161] | Ki | 3980 to 31600 pM |
| Cc1nc(-c2n[nH]cc2-c2ccc3ncc(-c4cccn(C)c4=O)cc3n2)ccc1F [Compound 674] | Ki | 39.8 to 316 pM |
| Cc1cccc(-c2[nH]cnc2-c2ccc3ncc(N4CCC5(CCNC5)C4)cc3c2)n1 (centres unmarked) [Compound 387] | Ki | < 31.6 pM |

We now examine a further compound.
[in] What value of Ki has been reported for the following compound? Cc1cccc(-c2[nH]cnc2-c2ccc3ncc(-c4ncc(CN5C[C@@H](C)N[C@@H](C)C5)s4)cc3c2)n1 [Compound 1028]
[out] 39.8 to 316 pM

###

EXPERIMENTAL_TARGET: recombinant human ALK5 (TGF-βR1) protein (Homo sapiens, UniProt P36897)
Construct: purchased Life Technologies PR9075A
Sequence (P36897 34-503): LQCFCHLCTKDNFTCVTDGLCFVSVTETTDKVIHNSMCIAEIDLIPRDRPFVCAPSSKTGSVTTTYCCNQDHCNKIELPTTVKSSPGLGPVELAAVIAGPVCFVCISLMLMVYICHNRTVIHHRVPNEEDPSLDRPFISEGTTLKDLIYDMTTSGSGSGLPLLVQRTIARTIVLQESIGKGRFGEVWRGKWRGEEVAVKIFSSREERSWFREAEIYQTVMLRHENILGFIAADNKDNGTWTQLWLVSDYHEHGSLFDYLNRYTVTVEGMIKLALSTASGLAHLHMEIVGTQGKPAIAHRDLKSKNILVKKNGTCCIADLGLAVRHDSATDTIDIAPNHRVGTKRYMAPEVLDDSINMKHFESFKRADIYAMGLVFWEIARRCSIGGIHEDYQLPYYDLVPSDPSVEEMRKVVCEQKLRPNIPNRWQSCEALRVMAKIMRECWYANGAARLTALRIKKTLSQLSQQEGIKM
TEST_SUMMARY: Biochemical ALK5 (TGF-βR1) assay to measure pKi (LANCE Ultra ULight kinase assay)
APPLIED_CONDITIONS: apparent pKi from pIC50 by Cheng-Prusoff, read-out: ALK5 pKi (converted)
REPORTED_ENDPOINT: Ki

| COMPOUND | Ki |
| --- | --- |
| Cc1cccc(-c2[nH]cnc2-c2ccc3ncc(-c4csc(C(=O)O[C@H]5C[C@@H](N)C5)c4)cc3c2)n1 | < 0.0316 nM |
| CCc1cccc(-c2n[nH]cc2-c2ccc3ncc(N4CCC(N(C)C)CC4)cc3n2)n1 | < 0.0316 nM |
| Cc1nc(-c2n[nH]cc2-c2ccc3ncc(-c4ncc5n4CCN5)cc3n2)ccc1F | 0.0398 to 0.316 nM |
| Cc1cccc(-c2[nH]cnc2-c2ccc3ncc(-c4cc(C(=O)OCC5CNC5)cs4)cc3c2)n1 | < 0.0316 nM |
| Cc1cccc(-c2[nH]cnc2-c2ccc3ncc(-c4csc(C(=O)O[C@@H]5CCN(C)C5)c4)cc3c2)n1 | 0.0398 to 0.316 nM |
| Cc1cccc(-c2nnn(Cc3ccccc3)c2-c2ccc3ncc(-c4cn[nH]c4)cc3n2)n1 | 0.0398 to 0.316 nM |

[in] What value of Ki on recombinant human ALK5 (TGF-βR1) protein (Homo sapiens, UniProt P36897) does "Cc1cccc(-c2[nH]cnc2-c2ccc3ncc(NC4CCNCC4)cc3c2)n1" have?
[out] 0.0398 to 0.316 nM

[in] What value of Ki on recombinant human ALK5 (TGF-βR1) protein (Homo sapiens, UniProt P36897) does "Cc1cccc(-c2[nH]cnc2-c2ccc3ncc(-c4ccc(C(=O)O[C@H]5CCNC5)cn4)cc3c2)n1" have?
[out] 0.0398 to 0.316 nM

[in] What value of Ki on recombinant human ALK5 (TGF-βR1) protein (Homo sapiens, UniProt P36897) does "Cc1cccc(-c2[nH]cnc2-c2ccc3ncc(C4=CC[C@@H](N)CC4)cc3c2)n1" have?
[out] < 0.0316 nM

[in] What value of Ki on recombinant human ALK5 (TGF-βR1) protein (Homo sapiens, UniProt P36897) does "Cc1nc(-c2nc3ccccn3c2-c2ccc3ncc(-c4nnn5c4CNCC5)cc3n2)ccc1F" have?
[out] 0.0398 to 0.316 nM

[in] What value of Ki on recombinant human ALK5 (TGF-βR1) protein (Homo sapiens, UniProt P36897) does "Cc1cccc(-c2n[nH]cc2-c2ccc3ncc(OCC(=O)N4CCOCC4)cc3n2)n1" have?
[out] 3.98 to 31.6 nM

[in] What value of Ki on recombinant human ALK5 (TGF-βR1) protein (Homo sapiens, UniProt P36897) does "Cc1cccc(-c2[nH]cnc2-c2ccc3ncc(-c4csc(C(=O)O[C@H]5CCNC5)c4)cc3c2)n1" have?
[out] 0.0398 to 0.316 nM

[in] What value of Ki on recombinant human ALK5 (TGF-βR1) protein (Homo sapiens, UniProt P36897) does "CNCCn1cc(-c2cnc3ccc(-c4c(-c5cccc(C)n5)nnn4C)cc3c2)cn1" have?
[out] < 0.0316 nM

###

EXPERIMENTAL_TARGET: recombinant human ALK5 (TGF-βR1) protein (Homo sapiens)
Construct: purchased Life Technologies PR9075A
TEST_SUMMARY: Biochemical ALK5 (TGF-βR1) assay to measure pKi (LANCE Ultra ULight kinase assay)
APPLIED_CONDITIONS: apparent pKi from pIC50 by Cheng-Prusoff, read-out: ALK5 pKi (converted)
REPORTED_ENDPOINT: Ki

| COMPOUND | VALUE_REPORTED |
| --- | --- |
| Cc1cccc(-c2n[nH]cc2-c2ccc3nccc(C4CO[C@H]5CNC[C@@H]5N4)c3n2)n1 (mixture of isomers) | 3.98 to 31.6 nM |
| Cc1cccc(-c2[nH]cnc2-c2ccc3ncc(-c4ccc5c(c4)CC[C@H]5N)cc3c2)n1 | < 0.0316 nM |
| Cc1cccc(-c2[nH]cnc2-c2ccc3ncc(-c4csc(C(=O)OC[C@@H]5CCC[C@H](N)C5)c4)cc3c2)n1 (racemic) | 0.0398 to 0.316 nM |
| Cc1cccc(-c2nnn(Cc3ccccc3)c2-c2ccc3ncc(N4CCC(N5CCN(C)CC5)CC4)cc3c2)n1 | 0.0398 to 0.316 nM |
| Cc1cccc(-c2[nH]cnc2-c2ccc3ncc(C(=O)O[C@H]4CCCC[C@H]4N)cc3c2)n1 | 3.98 to 31.6 nM |

We now examine a further compound.
[in] What value of Ki has been reported for the following compound? "Cc1cccc(-c2n[nH]cc2-c2ccc3ncc(-c4c[nH]nc4C(F)(F)F)cc3n2)n1"
[out] 0.0398 to 0.316 nM
